Format: in vivo, human
Conditions: human, plasma, oral, 0.2 mg
measurement.type: Tmax (h)
Just the number in h, nothing appended.

Kindly note the recorded Tmax for CC(C)(NC(=O)C1=C(O)[C@@H]2Oc3c(O)ccc4c3[C@@]23CCN(CC2CC2)[C@H](C4)[C@]3(O)C1)c1nc(-c2ccccc2)no1 , which is 1

* * *

Type: in vivo, human
Settings: male, human, plasma, oral, 0.4 mg
measurement.type: half-life (h)
Give your result in h as a bare value.

The recorded half-life for CC(C)(NC(=O)C1=C(O)[C@@H]2Oc3c(O)ccc4c3[C@@]23CCN(CC2CC2)[C@H](C4)[C@]3(O)C1)c1nc(-c2ccccc2)no1 [Naldemedine] is 10.6

Where these numbers come from: paper PMC7242238
